Listed here: compounds with reported pKi for C1b domain of human PKCα (Homo sapiens).
pKi: −log10 of the molar value.

- smiles entry: "CC1=C[C@H]2[C@@]3(O)[C@H](C)C[C@]4(OC(=O)[C@@H](N)[C@]56C[C@H]7C[C@H](C[C@H](C7)C5)C6)[C@H]([C@@H]3C=C(CO)C[C@]2(O)C1=O)C4(C)C"
  value measured: "7.52 to 8.00"

So, CC1=C[C@H]2[C@@]3(O)[C@H](C)C[C@]4(OC(=O)[C@@H](N)CC5CCCCC5)[C@H]([C@@H]3C=C(CO)C[C@]2(O)C1=O)C4(C)C ? Its pKi was 7.00 to 7.22

---

IC50 reference
system: A549 cell line; assay: Proliferation of A549 (CellTiter Glo); assay type: cell-based; conditions: Homo sapiens, A549, 96 h, read-out: IC50 μM (A549 Cell Line)

Worked examples follow.
- compound: "CC1=C[C@H]2[C@@]3(O)[C@H](C)C[C@]4(OC(=O)[C@@H](N)C(C)(C)C)[C@H]([C@@H]3C=C(CO)C[C@]2(O)C1=O)C4(C)C"
  value measured: "0.2 to 0.6 µM"
- compound: "CCCC[C@H](N)C(=O)O[C@@]12C[C@@H](C)[C@@]3(O)[C@@H](C=C(CO)C[C@]4(O)C(=O)C(C)=C[C@@H]34)[C@@H]1C2(C)C"
  value measured: "0.6 to 1 µM"
- compound: "CC1=C[C@H]2[C@@]3(O)[C@H](C)C[C@]4(OC(=O)[C@@H](N)CC5CC5)[C@H]([C@@H]3C=C(CO)C[C@]2(O)C1=O)C4(C)C"
  value measured: "2 to 5 µM"
- compound: "CC1=C[C@H]2[C@@]3(O)[C@H](C)C[C@]4(OC(=O)[C@@H](N)CC5CCC5)[C@H]([C@@H]3C=C(CO)C[C@]2(O)C1=O)C4(C)C"
  value measured: "1 to 2 µM"
- compound: "CC1=C[C@H]2[C@@]3(O)[C@H](C)C[C@]4(OC(=O)CCc5cnn(C)c5)[C@H]([C@@H]3C=C(CO)C[C@]2(O)C1=O)C4(C)C"
  value measured: "2 to 5 µM"

So, CC1=C[C@H]2[C@@]3(O)[C@H](C)C[C@]4(OC(=O)[C@H](N)CCCCCCCCc5ccccc5)[C@H]([C@@H]3C=C(CO)C[C@]2(O)C1=O)C4(C)C ? Its IC50 was 0.01 to 0.03 µM

So, CCCCCCCCCCCCCCCCCCC(CC(=O)O[C@@]12C[C@@H](C)[C@@]3(O)[C@@H](C=C(CO)C[C@]4(O)C(=O)C(C)=C[C@@H]34)[C@@H]1C2(C)C)C(=O)O (stereo partly drawn) ? Its IC50 was 5 to 10 µM

So, CC1=C[C@H]2[C@@]3(O)[C@H](C)C[C@]4(OC(=O)[C@@H](N)CCS(C)(=O)=O)[C@H]([C@@H]3C=C(CO)C[C@]2(O)C1=O)C4(C)C ? Its IC50 was > 30 µM

So, CC1=C[C@H]2[C@@]3(O)[C@H](C)C[C@]4(OC(=O)CCCCCCCCCCC(=O)O)[C@H]([C@@H]3C=C(CO)C[C@]2(O)C1=O)C4(C)C ? Its IC50 was 10 to 30 µM

So, CC1=C[C@H]2[C@@]3(O)[C@H](C)C[C@]4(OC(=O)[C@@H](N)CCCCCCc5ccccc5)[C@H]([C@@H]3C=C(CO)C[C@]2(O)C1=O)C4(C)C ? Its IC50 was 0.001 to 0.01 µM

So, CC1=C[C@H]2[C@@]3(O)[C@H](C)C[C@]4(OC(=O)C5CC6(C5)CN(C(=O)OC(C)(C)C)C6)[C@H]([C@@H]3C=C(CO)C[C@]2(O)C1=O)C4(C)C ? Its IC50 was 0.1 to 0.2 µM

So, CC1=C[C@H]2[C@@]3(O)[C@H](C)C[C@]4(OC(=O)C5CC6(CNC6)C5)[C@H]([C@@H]3C=C(CO)C[C@]2(O)C1=O)C4(C)C ? Its IC50 was > 30 µM

---

tested on: PANC1 cells; experiment: Sphere formation assay; type: cell-based; conditions: Homo sapiens, PANC-1, read-out: concentration exhibiting at least 50% inhibition on the sphere forming efficiency
pIC50: −log10 of the molar value.
quantity: pIC50

Worked examples follow.
- smiles entry: "CC1=C[C@H]2[C@@]3(O)[C@H](C)C[C@]4(OC(=O)C(C)(C)C)[C@H]([C@@H]3C=C(CO)C[C@]2(O)C1=O)C4(C)C"
  system: "PANC1 cells"
  quantity: "pIC50"
  value measured: "≥ 6.82"
- smiles entry: "CC1=C[C@H]2[C@@]3(O)[C@H](C)C[C@]4(OC(=O)[C@@H](N)C(C)(C)C)[C@H]([C@@H]3C=C(CO)C[C@]2(O)C1=O)C4(C)C"
  system: "PANC1 cells"
  quantity: "pIC50"
  value measured: "≥ 5.82"

So, CC1=C[C@H]2[C@@]3(O)[C@H](C)C[C@]4(OC(=O)[C@@H](N)[C@]56C[C@H]7C[C@H](C[C@H](C7)C5)C6)[C@H]([C@@H]3C=C(CO)C[C@]2(O)C1=O)C4(C)C ? Its pIC50 was ≥ 7.30

So, CC1=C[C@H]2[C@@]3(O)[C@H](C)C[C@]4(OC(=O)[C@@H](N)C5Cc6ccccc6C5)[C@H]([C@@H]3C=C(CO)C[C@]2(O)C1=O)C4(C)C ? Its pIC50 was ≥ 6.82

So, CC1=C[C@H]2[C@@]3(O)[C@H](C)C[C@]4(OC(=O)[C@@H](N)CCC5CCCCC5)[C@H]([C@@H]3C=C(CO)C[C@]2(O)C1=O)C4(C)C ? Its pIC50 was ≥ 6.82

So, CC1=C[C@H]2[C@@]3(O)[C@H](C)C[C@]4(OC(=O)[C@@H](N)CCCCCCc5ccccc5)[C@H]([C@@H]3C=C(CO)C[C@]2(O)C1=O)C4(C)C ? Its pIC50 was ≥ 7.30

So, CC1=C[C@H]2[C@@]3(O)[C@H](C)C[C@]4(OC(=O)[C@H](N)CCCCCCc5ccccc5)[C@H]([C@@H]3C=C(CO)C[C@]2(O)C1=O)C4(C)C ? Its pIC50 was ≥ 6.82

---

Listed here: compounds with reported pKi for C1b domain of human PKCε (Homo sapiens).
pKi: −log10 of the molar value.

Worked examples follow.
- compound: "CC1=C[C@H]2[C@@]3(O)[C@H](C)C[C@]4(OC(=O)[C@@H](N)CC5CCCCC5)[C@H]([C@@H]3C=C(CO)C[C@]2(O)C1=O)C4(C)C"
  pKi: "7.52 to 8.00"
- compound: "CC1=C[C@H]2[C@@]3(O)[C@H](C)C[C@]4(OC(=O)[C@H](N)C(C)(C)c5ccc(C(F)(F)F)cc5)[C@H]([C@@H]3C=C(CO)C[C@]2(O)C1=O)C4(C)C"
  pKi: "7.52 to 8.00"
- compound: "CCCCCCCCCCCCCC(=O)O[C@@H]1[C@@H](C)[C@@]2(O)[C@@H](C=C(CO)C[C@]3(O)C(=O)C(C)=C[C@@H]23)[C@@H]2C(C)(C)[C@]12OC(C)=O [Compound K103, 12-O-Tetradecanoylphorbol-13-acetate, reference compound]"
  pKi: "> 8.30"
- compound: "CC1=C[C@H]2[C@@]3(O)[C@H](C)C[C@]4(OC(=O)[C@@H](N)C5Cc6ccccc6C5)[C@H]([C@@H]3C=C(CO)C[C@]2(O)C1=O)C4(C)C"
  pKi: "7.52 to 8.00"

Now let's try a different one.
Item: CC1=C[C@H]2[C@@]3(O)[C@H](C)C[C@]4(OC(=O)[C@H](N)CCCCCCc5ccc(C(F)(F)F)cc5)[C@H]([C@@H]3C=C(CO)C[C@]2(O)C1=O)C4(C)C | System: C1b domain of human PKCε (Homo sapiens) | pKi: 7.00 to 7.22

---

ratio (IC50 of K101)/(IC50 of compound) Mino reference
system: Mino (Lymphoma); assay: Proliferation of Mino; assay type: cell-based

Item: CC1=C[C@H]2[C@@]3(O)[C@H](C)C[C@]4(OC(=O)CCc5ccc(C(F)(F)F)cc5)[C@H]([C@@H]3C=C(CO)C[C@]2(O)C1=O)C4(C)C | System: Mino (Lymphoma) | ratio (IC50 of K101)/(IC50 of compound) Mino: 75

---

pKi: −log10 of the molar value.
Listed here: compounds with reported pKi for C1b domain of human PKCθ (Homo sapiens).

- compound: "CC1=C[C@H]2[C@@]3(O)[C@H](C)C[C@]4(OC(=O)[C@H](N)CCCCCCCCc5ccccc5)[C@H]([C@@H]3C=C(CO)C[C@]2(O)C1=O)C4(C)C"
  value measured: "7.52 to 8.00"

So, CC1=C[C@H]2[C@@]3(O)[C@H](C)C[C@]4(OC(=O)[C@H](N)CCCCCCc5ccccc5)[C@H]([C@@H]3C=C(CO)C[C@]2(O)C1=O)C4(C)C ? Its pKi was 7.52 to 8.00

So, CC1=C[C@H]2[C@@]3(O)[C@H](C)C[C@]4(OC(=O)/C=C/c5ccc(C(F)(F)F)cc5)[C@H]([C@@H]3C=C(CO)C[C@]2(O)C1=O)C4(C)C ? Its pKi was 7.52 to 8.00

So, CCCCCCCCCCCCCC(=O)O[C@@H]1[C@@H](C)[C@@]2(O)[C@@H](C=C(CO)C[C@]3(O)C(=O)C(C)=C[C@@H]23)[C@@H]2C(C)(C)[C@]12OC(C)=O [Compound K103, 12-O-Tetradecanoylphorbol-13-acetate, reference compound] ? Its pKi was > 8.30

So, CC1=C[C@H]2[C@@]3(O)[C@H](C)C[C@]4(OC(=O)CCC5CCCC5)[C@H]([C@@H]3C=C(CO)C[C@]2(O)C1=O)C4(C)C ? Its pKi was 7.52 to 8.00
